Reference source: patent US10335409B2

So I've got Ki readings for HCV NS3 protease domain genotype 3a (Hepatitis C virus genotype 3a), take a look.
Value expressed in nM; do not type the unit.

A selection of reference data follows.
{"Compound": "COc1ccc2nc3c(nc2c1)O[C@H]1CN(C(=O)[C@H](C2(C)CCCC2)NC(=O)O[C@@H]2C[C@H]2CCCCC3)[C@H](C(=O)N[C@]2(C(=O)NS(=O)(=O)C3(C)CC3)C[C@H]2C(F)F)[C@@H]1C [Example 38]", "Ki, nM": 0.7}
{"Compound": "COc1ccc2nc3c(nc2c1)O[C@H]1CN(C(=O)[C@H](C(C)(C)C)NC(=O)O[C@@H]2C[C@H]2CCCCC3)[C@H](C(=O)N[C@]2(C(=O)NS(=O)(=O)C3(C)CC3)C[C@H]2C(F)F)[C@@H]1CC(C)C [Example 30]", "Ki, nM": 0.63}

Challenge: Write down Ki measured for item CC[C@@H]1[C@@H]2CN(C(=O)[C@H](C(C)(C)C)NC(=O)O[C@@H]3[C@H]4CC[C@H](C4)[C@H]3CCCCCc3nc4ccc(OC)cc4nc3O2)[C@@H]1C(=O)N[C@]1(C(=O)NS(=O)(=O)C2CC2)C[C@H]1C(F)F [Example 13]
Response given: 0.18

Challenge: Write down Ki measured for item CC[C@@H]1[C@@H]2CN(C(=O)[C@H](C(C)(C)C)NC(=O)O[C@@]3(C(F)(F)F)CCCC3CCCCCc3nc4ccc(OC)cc4nc3O2)[C@@H]1C(=O)N[C@]1(C(=O)NS(=O)(=O)C2(C)CC2)C[C@H]1C(F)F (stereo partly drawn) [Example 10]
Response given: 0.52

Challenge: Write down Ki measured for item CC[C@@H]1[C@@H]2CN(C(=O)[C@H](C(C)(C)C)NC(=O)O[C@@H]3C[C@H]3CCCCCc3nc4ccc(OC)cc4nc3O2)[C@@H]1C(=O)N[C@]1(C(=O)NS(=O)(=O)C2(C)CC2)C[C@H]1C(F)F [Example 1]
Response given: 0.07

Challenge: Write down Ki measured for item CC[C@@H]1[C@@H]2CN(C(=O)[C@H](C(C)(C)C)NC(=O)O[C@]3(C(F)(F)F)CCC[C@H]3CCCCCc3nc4ccc(OC)cc4nc3O2)[C@@H]1C(=O)N[C@]1(C(=O)NS(=O)(=O)C2CC2)C[C@H]1C(F)F [Example 11]
Response given: 0.88

----------
Test system: genotype 3a (S52) wild type transient HCV replicon in Huh-7-derived cells
Method Notes: Transient-transfected HCV replicon EC50, genotype 3a wild type
Format: cell-based, hepatitis C virus
Measurement Conditions: Hepatitis C virus; transient-transfected replicon genotype 3a wild type, 72 h; read-out: EC50 3A WT
Items are presented alongside their recorded EC50.
Value expressed in nM; do not type the unit.

{"Smiles Text": "CC[C@@H]1[C@@H]2CN(C(=O)[C@H](C(C)(C)C)NC(=O)O[C@@H]3C[C@H]3CCCCCc3nc4ccc(OC)cc4nc3O2)[C@@H]1C(=O)N[C@]1(C(=O)NS(=O)(=O)C2(C)CC2)C[C@H]1CC(F)F", "Test Target": "genotype 3a (S52) wild type transient HCV replicon in Huh-7-derived cells", "Result Unit": "nM", "EC50": 107}

Challenge: Write down EC50 measured for item CC[C@@H]1[C@@H]2CN(C(=O)[C@H](C(C)(C)C)NC(=O)O[C@@H]3C[C@@H]4C[C@@H]4[C@H]3CCCCC(F)(F)c3nc4ccc(OC)cc4nc3O2)[C@@H]1C(=O)N[C@]1(C(=O)NS(=O)(=O)C2CC2)C[C@H]1C(F)F
Response given: 15

----------
Items are presented alongside their recorded EC50.
Test system: genotype 4a (ED43) stable HCV replicon in Huh-7-derived cells
Method Notes: Stable subgenomic HCV replicon EC50, genotype 4a (Renilla luciferase)
Type: cell-based, hepatitis C virus
Measurement Conditions: Hepatitis C virus, 72 h, read-out: EC50 4A RLUC
Value expressed in nM; do not type the unit.

A selection of reference data follows.
{"Smiles Text": "CC[C@@H]1[C@@H]2CN(C(=O)[C@H](C(C)(C)C)NC(=O)O[C@@H]3C[C@H]3CCCCCc3nc4ccc(OC)cc4nc3O2)[C@@H]1C(=O)N[C@]1(C(=O)NS(=O)(=O)C2(F)CC2)C[C@H]1C(F)F", "EC50, nM": 8.3}
{"Smiles Text": "CC[C@@H]1[C@@H]2CN(C(=O)[C@H](C3CCCC3)NC(=O)O[C@@H]3C[C@H]3CCCCCc3nc4ccc(OC)cc4nc3O2)[C@@H]1C(=O)N[C@]1(C(=O)NS(=O)(=O)C2(C)CC2)C[C@H]1C(F)F", "EC50, nM": 7.3}
{"Smiles Text": "CC[C@@H]1[C@@H]2CN(C(=O)[C@H](C(C)(C)C)NC(=O)O[C@@H]3C[C@H]3CC/C=C/C(F)(F)c3nc4ccc(C#N)cc4nc3O2)[C@@H]1C(=O)N[C@]1(C(=O)NS(=O)(=O)C2(C)CC2)C[C@H]1C(F)F", "EC50, nM": 6.4}

Challenge: Write down EC50 measured for item CC[C@@H]1[C@@H]2CN(C(=O)[C@H](C(C)(C)C)NC(=O)O[C@@H]3C[C@H]3CCCCCc3nc4ccc(OC)cc4nc3O2)[C@@H]1C(=O)N[C@]1(C(=O)NS(=O)(=O)C2(C)CC2)C[C@H]1C
Response given: 7.2

----------
So I've got Ki readings for HCV NS3 protease domain genotype 3a (Hepatitis C virus genotype 3a), take a look.
Value expressed in nM; do not type the unit.

{"Molecule": "C[C@@H]1[C@@H]2CN(C(=O)[C@H](C(C)(C)C)NC(=O)O[C@@H]3C[C@@H]4C[C@@H]4[C@H]3CCCCCc3nc4ccc(F)cc4nc3O2)[C@@H]1C(=O)N[C@]1(C(=O)NS(=O)(=O)C2(C)CC2)C[C@H]1C(F)F", "Test Target": "HCV NS3 protease domain genotype 3a (Hepatitis C virus genotype 3a)", "Observed Result": 0.07}
{"Molecule": "COc1ccc2nc3c(nc2c1)O[C@H]1CN(C(=O)[C@H](C(C)(C)C)NC(=O)O[C@]2(C)C[C@H]2CCCCC3)[C@H](C(=O)N[C@]2(C(=O)NS(=O)(=O)C3(C)CC3)C[C@H]2C(F)F)[C@@H]1C", "Test Target": "HCV NS3 protease domain genotype 3a (Hepatitis C virus genotype 3a)", "Observed Result": 0.08}
{"Molecule": "CC[C@]12C[C@@H]1CCCCCc1nc3ccc(OC)cc3nc1O[C@H]1CN(C(=O)[C@H](C(C)(C)C)NC(=O)O2)[C@H](C(=O)N[C@]2(C(=O)NS(=O)(=O)C3(C)CC3)C[C@H]2C(F)F)[C@@H]1C", "Test Target": "HCV NS3 protease domain genotype 3a (Hepatitis C virus genotype 3a)", "Observed Result": 0.75}
{"Molecule": "CC[C@@H]1[C@@H]2CN(C(=O)[C@H](C(C)(C)C)NC(=O)O[C@@H]3CCC[C@H]3CCCCCc3nc4ccc(OC)cc4nc3O2)[C@@H]1C(=O)N[C@]1(C(=O)NS(=O)(=O)C2CC2)C[C@H]1C(F)F", "Test Target": "HCV NS3 protease domain genotype 3a (Hepatitis C virus genotype 3a)", "Observed Result": 0.17}
{"Molecule": "CC[C@@H]1[C@@H]2CN(C(=O)[C@H](C(C)(C)C)NC(=O)O[C@@H]3C[C@H]3CCCCC(F)(F)c3nc4ccc(OC)cc4nc3O2)[C@@H]1C(=O)N[C@]1(C(=O)NS(=O)(=O)C2(C)CC2)C[C@H]1C(F)F", "Test Target": "HCV NS3 protease domain genotype 3a (Hepatitis C virus genotype 3a)", "Observed Result": 0.06}
{"Molecule": "COc1ccc2nc3c(nc2c1)O[C@H]1CN(C(=O)[C@H](C(C)(C)C)NC(=O)O[C@@H]2C[C@H]2CCCCC3)[C@H](C(=O)N[C@]2(C(=O)NS(=O)(=O)C3(C)CC3)C[C@H]2C(F)F)[C@@H]1C", "Test Target": "HCV NS3 protease domain genotype 3a (Hepatitis C virus genotype 3a)", "Observed Result": 0.1}
{"Molecule": "CC[C@@H]1[C@@H]2CN(C(=O)[C@H](C(C)(C)C)NC(=O)O[C@@H]3C[C@@H]4C[C@@H]4[C@H]3CCCCC(F)(F)c3nc4ccc(OC)cc4nc3O2)[C@@H]1C(=O)N[C@]1(C(=O)NS(=O)(=O)C2CC2)C[C@H]1C(F)F", "Test Target": "HCV NS3 protease domain genotype 3a (Hepatitis C virus genotype 3a)", "Observed Result": 0.06}
{"Molecule": "COc1ccc2nc3c(nc2c1)O[C@H]1CN(C(=O)[C@H](C(C)(C)C)NC(=O)O[C@@H]2C[C@H]2CCCCC3)[C@H](C(=O)N[C@]2(C(=O)NS(=O)(=O)C3(C)CC3)C[C@H]2C(F)F)[C@@H]1C1CC1", "Test Target": "HCV NS3 protease domain genotype 3a (Hepatitis C virus genotype 3a)", "Observed Result": 4.9}

Challenge: Jot down Ki (HCV NS3 protease domain genotype 3a (Hepatitis C virus genotype 3a)) of CC[C@@H]1[C@@H]2CN(C(=O)[C@H](C(C)(C)C)NC(=O)O[C@@H]3C[C@H]3CCCCC(F)(F)c3nc4ccc(OC(F)(F)F)cc4nc3O2)[C@@H]1C(=O)N[C@]1(C(=O)NS(=O)(=O)C2(C)CC2)C[C@H]1C(F)F .
Response given: 0.48
